Consider the following compounds and their measured IC50 readings.
TEST TARGET: PD-L1 His protein / PD-1 Fc protein (Homo sapiens (Human), UniProt Q9NZQ7)
Sequence (Q9NZQ7 19-238): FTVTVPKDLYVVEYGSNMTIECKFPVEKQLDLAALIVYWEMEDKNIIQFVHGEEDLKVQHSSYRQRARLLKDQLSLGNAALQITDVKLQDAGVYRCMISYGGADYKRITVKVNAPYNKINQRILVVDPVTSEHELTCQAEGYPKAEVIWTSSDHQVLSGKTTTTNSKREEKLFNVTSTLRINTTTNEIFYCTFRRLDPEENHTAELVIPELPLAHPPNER
ASSAY OVERVIEW: HTRF Assay (PD-1/PD-L1 interaction)
Format: binding
SETUP CONDITIONS: PD-L1 His 6 nM, PD-1 Fc 6 nM
MEASURED PARAMETER: IC50 (nM)

- CNCc1ccc(-c2cccc(-c3ccnc(-c4cc(CNC[C@@H](O)CC(=O)O)cc(OC)c4)c3Cl)c2Cl)nc1OC: 1.85
- COc1cc(-c2nccc(-c3cccc(-c4ccc(CNC5CCN(C(C)=O)CC5)c(OC)n4)c3F)c2F)ccc1CNC1CCN(C(C)=O)CC1: 12.9
- COc1nc(-c2cccc(-c3ccnc(-c4ccc5c(CN(C)CCO)nn(C)c5c4)c3Cl)c2Cl)ccc1CNC[C@@H]1CCC(=O)N1: 6.74

----------
TEST TARGET: UniProtKB Q9NZQ7
ASSAY OVERVIEW: T cell activation luciferase reporter cell culture system (T Cell Activation Assay)
Assay type: cell-based
SETUP CONDITIONS: luciferase reporter assay; PD-L1 aAPC/CHO-K1 cells with PD-1 effector Jurkat T cells
MEASURED PARAMETER: EC50 (µM)

* COc1cc(-c2nccc(-c3cccc(-c4ccc5c(CN6CC7(CNC(=O)C7)C6)cn(C)c5n4)c3Cl)c2Cl)ccc1CNC[C@@H]1CCC(=O)N1 | 0.0222
* COc1cc(-c2nccc(-c3cccc(-c4ccc(CNC5CCS(=O)(=O)CC5)c(OC)n4)c3Cl)c2Cl)cc(F)c1CNC1CCS(=O)(=O)CC1 | 0.0383
* COc1cc(-c2nccc(-c3cccc(-c4cnc(CNC5CCN(C(C)=O)CC5)c(OC)n4)c3Cl)c2Cl)ccc1CNC1CCN(C(C)=O)CC1 | 0.152

----------
TEST TARGET: PD-L1 His protein / PD-1 Fc protein (Homo sapiens (Human))
ASSAY OVERVIEW: HTRF Assay (PD-1/PD-L1 interaction)
Type: binding
SETUP CONDITIONS: PD-L1 His 6 nM, PD-1 Fc 6 nM
pIC50: −log10 of the molar value.
pIC50 overview
MEASURED PARAMETER: pIC50

• COC(=O)C1(CN2CCc3cc(-c4nccc(-c5cccc(-c6ccc(CN7CC8(CNC(=O)C8)C7)c(OC)n6)c5Cl)c4Cl)cc(OC)c3C2)CC1 [Example 295] = 8.68
• COc1cc(-c2nccc(-c3cccc(-c4ccc(C5=NCCN5)c(OC)n4)c3Cl)c2Cl)ccc1C1=NCCN1 [Compound 106] = 8.85
• COc1nc(-c2cccc(-c3ccnc(-c4ccc5c(c4)CN(CCNC[C@@H]4CCC(=O)N4)C5=O)c3Cl)c2Cl)ccc1CNC[C@@H]1CCC(=O)N1 [Compound 66] = 9.22
• COc1nc(-c2cccc(-c3ccnc(-c4ccc(CNC5CCOCC5)c(OC(F)F)c4)c3Cl)c2Cl)ccc1CN1CC2(CNC(=O)C2)C1 [Example 685] = 8.37
• COc1nc(-c2cccc(-c3ccnc(-c4ccc5c(c4)OCCN(C[C@H](C)O)C5)c3Cl)c2Cl)ccc1CNC[C@@H]1CCC(=O)N1 [Compound 25] = 9.30
• COc1cc(-c2ncnc(-c3cccc(-c4ccc(CNCc5cnco5)c(OC)n4)c3Cl)c2Cl)ccc1CNCc1cnco1 [Example 643] = 8.38

----------
TEST TARGET: human PD-L1 (Homo sapiens (Human), UniProt Q9NZQ7)
Sequence (Q9NZQ7 19-290): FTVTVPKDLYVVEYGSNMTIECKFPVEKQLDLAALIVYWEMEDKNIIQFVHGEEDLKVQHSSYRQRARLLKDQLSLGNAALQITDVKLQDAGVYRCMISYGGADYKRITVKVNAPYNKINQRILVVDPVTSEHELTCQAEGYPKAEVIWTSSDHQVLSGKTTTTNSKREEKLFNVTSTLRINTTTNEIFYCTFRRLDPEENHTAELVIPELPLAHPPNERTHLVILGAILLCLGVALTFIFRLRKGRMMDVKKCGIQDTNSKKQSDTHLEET
ASSAY OVERVIEW: T cell activation luciferase reporter cell culture system (T Cell Activation Assay)
Assay type: cell-based
SETUP CONDITIONS: luciferase reporter assay; PD-L1 aAPC/CHO-K1 cells with PD-1 effector Jurkat T cells
MEASURED PARAMETER: EC50 (nM)

- COc1cc(-c2nccc(-c3cccc(-c4ccc(CNC5CCN(C(C)=O)CC5)c(OC)n4)c3Cl)c2Cl)ccc1CN1CC[C@H](C(=O)O)C1 [Example 239]: 161
- COc1nc(-c2ccnc(-c3cccc4c3CC[C@@H]4Oc3nc(OC)c(CNC4CCN(C(C)=O)CC4)cc3C(F)(F)F)c2Cl)ccc1CN1CC2(CNC(=O)C2)C1 [Example 551]: 182
- COc1nc(-c2cccc(-c3nccc(-c4ccc(CN5CC6(CNC(=O)C6)C5)c(OC)n4)c3Cl)c2Cl)ccc1CNC1CCN(C(C)=O)CC1 [Compound 680]: 26.3
- COc1cc(-c2nccc(-c3cccc(-c4ccc(CNCCCF)c(OC)n4)c3Cl)c2Cl)ccc1CNCCCF [Example 534]: 56.7
- COc1cc(-c2nccc(-c3cccc(NC(=O)c4cn(C)c(=O)n(C)c4=O)c3Cl)c2Cl)ccc1CNC[C@@H]1CCC(=O)N1 [Example 657]: 33.3
- CCOc1cc(-c2nccc(-c3cccc(-c4ccc(CNC5CCN(C(C)=O)CC5)c(OC)n4)c3Cl)c2Cl)cn2nc(CN3CC4(CNC(=O)C4)C3)nc12 [Example 586]: 205
- COc1cc(-c2nccc(-c3cccc(-c4cc(Cl)c(CNC[C@@H]5CCC(=O)N5)c(OC)n4)c3Cl)c2Cl)cc2c1CN(C[C@H](C)O)CC2 [Cmpd 86]: 27.5
- COc1cc(-c2nccc(-c3cccc(-c4ccc(CN5CC6(C5)CN(C(C)=O)C6)c(OC)n4)c3Cl)c2Cl)cc2c1CN(CCCF)CC2 [Example 249]: 81.7
- COc1cc(-c2nccc(-c3cccc(NC(=O)c4ccc(CN5CC6(C5)CN(C(C)=O)C6)cn4)c3Cl)c2Cl)ccc1CN1CC2(C1)CN(C(C)=O)C2 [Example 677]: 1210
- COc1nc(-c2cccc(-c3ccnc(-c4ccc(CNC5CCN(CCO)CC5)c(OC(F)F)c4)c3Cl)c2Cl)ccc1CNC1CCN(CCO)CC1 [Example 620]: 44.9
- COc1cc(-c2nccc(-c3cccc(-c4ccc(CNCCCCC(N)=O)c(OC)n4)c3Cl)c2Cl)ccc1CNCCCCC(N)=O [Example 373]: 152

----------
TEST TARGET: PD-L1 His protein / PD-1 Fc protein (Homo sapiens (Human))
ASSAY OVERVIEW: HTRF Assay (PD-1/PD-L1 interaction)
Type: binding
SETUP CONDITIONS: PD-L1 His 6 nM, PD-1 Fc 6 nM
MEASURED PARAMETER: IC50

- COc1nc(-c2cccc(-c3ccnc(-c4cnc5c(CNC[C@@H]6CCO6)cn(C)c5c4)c3Cl)c2Cl)ccc1CNC[C@@H]1CCC(=O)N1: 0.3 nM
- COc1cc(-c2nccc(-c3cccc(-c4ccc(CNCCCF)c(OC)n4)c3C(F)(F)F)c2Cl)ccc1CNCCCF: 160 nM
- COc1cc(-c2nccc(-c3cccc(-c4ccc(CN5CC6(CCC(=O)N6)C5)c(OC)n4)c3Cl)c2Cl)ccc1CN1CC2(CCC(=O)N2)C1: 0.278 nM
- COc1cc(-c2nccc(-c3cccc(-c4ccc(CNC5CCN(C(C)C)CC5)c(OC)n4)c3Cl)c2Cl)ccc1CNC1CCN(C(C)C)CC1: 4.23 nM
- COc1cc(CNCCO)cc(-c2nccc(-c3cccc(-c4ccc(CNCCO)c(OC)n4)c3Cl)c2Cl)c1: 1.18 nM
- COc1cc(-c2nccc(-c3cccc(-c4ccc(CN5CC6(CNC(=O)C6)C5)c(OC)n4)c3Cl)c2Cl)cc(F)c1CN1CC2(CNC(=O)C2)C1: 4.67 nM

----------
TEST TARGET: UniProt Q9NZQ7
ASSAY OVERVIEW: T cell activation luciferase reporter cell culture system (T Cell Activation Assay)
Format: cell-based
SETUP CONDITIONS: luciferase reporter assay; PD-L1 aAPC/CHO-K1 cells with PD-1 effector Jurkat T cells
pEC50: −log10 of the molar value.
MEASURED PARAMETER: pEC50

• COc1cc(-c2nccc(-c3cccc(-c4cnc(CNC[C@@H]5CCC(=O)N5)c(OC)n4)c3Cl)c2Cl)ccc1CNC[C@@H]1CCC(=O)N1 = 7.65
• COc1nc(-c2ccnc(-c3cccc4c3CC[C@@H]4Oc3nc(OC)c(CN4CC5(CNC(=O)C5)C4)cc3C(F)(F)F)c2Cl)ccc1CN1CC2(CNC(=O)C2)C1 = 7.02
• COc1nc(-c2ccnc(-c3cccc4c3CC[C@@H]4Oc3nc(OC)c(CNC4CCN(C(C)=O)CC4)cc3C(F)(F)F)c2Cl)ccc1CNC[C@@H]1CCC(=O)N1 = 7.84
• COc1cc(-c2nccc(-c3cccc(-c4ccc(CNCCCNC(C)=O)c(OC)n4)c3Cl)c2Cl)ccc1CNCCCNC(C)=O = 7.19
• COc1cc(-c2nccc(-c3cccc(-c4ccc(CNC[C@@H]5CCC(=O)N5)c(OC)n4)c3Cl)c2Cl)ccc1CNCC(=O)OC(C)C = 6.85
• COc1cc(-c2nccc(-c3cccc(-c4ccc(CNC[C@@H]5CCC(=O)N5)c(OC)n4)c3Cl)c2Cl)cc(F)c1CNCCCF = 7.37

----------
TEST TARGET: human PD-L1 (Homo sapiens (Human))
ASSAY OVERVIEW: T cell activation luciferase reporter cell culture system (T Cell Activation Assay)
Assay type: cell-based
SETUP CONDITIONS: luciferase reporter assay; PD-L1 aAPC/CHO-K1 cells with PD-1 effector Jurkat T cells
pEC50: −log10 of the molar value.
Class True: pEC50 at least 7. Class False: pEC50 below 7.

• COc1nc(-c2cccc(-c3nccc(-c4ccc(CN5CC[C@@H](O)C5)c(OC)n4)c3Cl)c2Cl)ccc1CN1CC[C@@H](O)C1 = True
• COc1cc(-c2nccc(-c3cccc(-c4ccc([C@H](C)NC5CCN(C(C)=O)CC5)c(OC)n4)c3Cl)c2Cl)ccc1[C@H](C)NC1CCN(C(C)=O)CC1 = False
• COc1cc(-c2nccc(-c3cccc(-c4ccc(CNC5CCN(C(C)=O)CC5)c(OC)n4)c3Cl)c2Cl)ccc1CN[C@H]1CC[C@H](O)CC1 = True
• COc1cc(-c2nccc(-c3cccc(-c4ccc(CN5CC6(C5)CN(C(C)=O)C6)c(OC)n4)c3Cl)c2Cl)ccc1CN1CC2(C1)CN(C(C)=O)C2 = True
• COc1nc(-c2cccc(-c3ccnc(-c4ccc(CN5CC6(CNC(=O)C6)C5)c(OC(F)F)c4)c3Cl)c2Cl)ccc1CNC1CCOCC1 = True
• COc1cc(-c2ncnc(-c3cccc(-c4ccc(CN5CC6(CNC(=O)C6)C5)c(OC)n4)c3Cl)c2OC)ccc1CN1CC2(CNC(=O)C2)C1 = False
• COc1nc(-c2cccc(-c3ccnc(-c4cc(OC)c5nc(CN(C)CCO)nn5c4)c3Cl)c2Cl)ccc1CNC1CCN(C(C)=O)CC1 = False
• COc1nc(-c2cccc(-c3ccnc(-c4ccc5c(c4)CNC5)c3Cl)c2Cl)ccc1CNC1CCN(C(C)=O)CC1 = False
• COc1cc(-c2nccc(-c3cccc(NC(=O)c4ccc(CNCCO)cn4)c3Cl)c2Cl)ccc1CN1CC2(CNC(=O)C2)C1 = True
• COc1cc(-c2nccc(-c3cccc(-c4ccc(CNCCCF)c(OC)n4)c3C(F)(F)F)c2Cl)ccc1CNCCCF = False
• COc1cc(-c2nccc(-c3cccc(-c4ccc(CNCC5(CO)CC5)c(OC)n4)c3Cl)c2Cl)cc2c1CN(CCCF)CC2 = True
• COc1cc(-c2nccc(-c3cccc(-c4ccc(CNC5CC6(CCNC6=O)C5)c(OC)n4)c3Cl)c2Cl)ccc1CNC1CC2(CCNC2=O)C1 (stereo not drawn) = True
• COc1nc(-c2ccnc(-c3cccc(NC(=O)c4cn(C)c(=O)n(C)c4=O)c3Cl)c2Cl)ccc1CNC1CCN(C(C)=O)CC1 = False
• COc1nc(-c2cccc(-c3ccnc(-c4ccc5c(CN6CC7(CNC(=O)C7)C6)nn(C)c5c4)c3Cl)c2Cl)ccc1CNC[C@@H]1CCC(=O)N1 = True
• COc1cc(-c2nccc(-c3cccc(-c4ccc(CNC[C@@H]5CCC(=O)N5)c(OC)n4)c3Cl)c2Cl)cc2c1CN(C[C@@H]1CCC(=O)N1)CC2 = True
• COc1cc(-c2nccc(-c3cccc(-c4cc(F)c(CNC[C@@H]5CCC(=O)N5)c(OC)n4)c3Cl)c2Cl)cc2c1CN(C[C@H](C)O)CC2 = True
• COc1cc(-c2nccc(-c3cccc(-c4ccc(CNC[C@@H]5CCC(=O)N5)c(OC)n4)c3Cl)c2Cl)ccc1CN1CCC[C@H]1C(=O)O = False
• COc1cc(-c2nccc(-c3cccc(-c4ccc(CNC5CCOCC5)c(OC)n4)c3Cl)c2Cl)cc(F)c1CNC1CCOCC1 = True

Measured values drawn from patent US20240246964A1 for this set.
